biological target: Histone-lysine N-methyltransferase EHMT2 (Homo sapiens) (UniProt Q96KQ7); experiment: qHTS Assay for Inhibitors of Histone Lysine Methyltransferase G9a; details: G9a H3K9 monomethylation, AlphaScreen, 2 h; series mostly up to 59 µM; also: nearly all actives have a fitted effect of over 75% in size
Sequence (Q96KQ7 913-1193 limits assumed): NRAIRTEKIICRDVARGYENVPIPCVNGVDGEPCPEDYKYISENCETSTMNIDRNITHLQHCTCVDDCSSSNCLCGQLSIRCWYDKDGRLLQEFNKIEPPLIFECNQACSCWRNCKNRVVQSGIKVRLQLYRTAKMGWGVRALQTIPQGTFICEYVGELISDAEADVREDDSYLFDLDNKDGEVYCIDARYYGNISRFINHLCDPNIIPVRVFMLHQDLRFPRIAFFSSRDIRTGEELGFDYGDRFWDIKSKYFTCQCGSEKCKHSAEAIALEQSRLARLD
The campaign covered roughly 350,000 compounds. About 31,000 (8.9%) were called active. Not shown: some 15% with an inconclusive outcome. Calls follow the shape of the dose curve; as a rule, active = well fitted inhibition curve with a large enough effect; inconclusive = small, poorly fitted or top-dose-only effect; inactive = no such curve, though single readings can be large or run the other way. Shown is part of a subset that was picked to be rich in actives.
Could you please pick one outcome from this set? active, inactive

Some solved entries appear below for comparison.
[
  {
    "MOLECULE": "Brc1ccccc1/C=N/Nc1nc2ccccc2o1",
    "ASSIGNED_CLASS": "inactive"
  },
  {
    "MOLECULE": "Fc1ccccc1Oc1ncnc2c1oc1ccccc12",
    "ASSIGNED_CLASS": "inactive"
  },
  {
    "MOLECULE": "CC(C)(C)N(Cc1ccccc1)C(=O)COC(=O)CCc1c[nH]c2ccccc12",
    "ASSIGNED_CLASS": "active"
  },
  {
    "MOLECULE": "Cn1c(=O)c2c(nc(SCC(=O)Nc3ccc(F)cc3)n2Cc2ccccc2)n(C)c1=O",
    "ASSIGNED_CLASS": "inactive"
  }
]

Now consider a different molecule.
Lookup: Record request — test call for COC(=O)C(C)Sc1nc2c(c(=O)n(C)c(=O)n2C)n1Cc1cccc(C)c1 (stereo not given)
Found: active

Data origin: PubChem BioAssay AID504332
